Reported GI50 values for the following compounds.
system: SW-620; assay: NCI tumour cell line growth inhibition, 48 h
Active and inactive are the calls of the source. No stated cut-off is given here; in the data, active = GI50 up to about 1.1 µM and inactive = higher. Where a SMILES comes first, the peptide text is derived from it. [ ]: non-standard residue; d: D form. The star is where a group is joined. NMeF = CN[CH](Cc1ccccc1)C(=O)O; NMeV = CN[CH](C(=O)O)C(C)C; Boc = CC(C)(C)OC(=O)*; OBn = c1ccc(CO*)cc1

{"columns": ["COMPOUND", "GI50"],
 "data": [
  ["CC(C)C(NC(=O)OC(C)(C)C)C(=O)N(C)C(Cc1ccccc1)C(=O)N(C)C(C(=O)N(C)C(C(=O)OCc1ccccc1)C(C)C)C(C)C (stereo unspecified) (Boc-V[NMeF][NMeV][NMeV]-OBn; configuration not given here)", "> 100 µM (inactive)"],
  ["[O-][n+]1c2c([n+]([O-])c3ccccc31)CCCCCCCCCC2", "> 100 µM (inactive)"],
  ["O=C(O)CN1CCCC(Cc2c[nH]c3ccccc23)C1 (stereo unspecified)", "> 100 µM (inactive)"],
  ["COc1ccc(N2C(=O)/C(=C/c3ccc(N(CCC#N)CCC#N)cc3)N=C2c2ccccc2)cc1", "> 100 µM (inactive)"],
  ["O=c1[nH]c2ccc(C(F)(F)F)cc2nc1-c1ccccc1", "> 100 µM (inactive)"],
  ["CSC1=N/C(=C\\c2ccc(Cl)cc2)C(=O)N1CN1CCOCC1", "36.7 µM (inactive)"],
  ["CCN(CC)[C@@H]1c2cc3c(cc2C(c2cc(OC)c(O)c(OC)c2)C2C(=O)CO[C@@H]21)OCO3 (stereo partly specified)", "> 100 µM (inactive)"],
  ["CC1=Nc2ccccc2NC(c2ccoc2)C1 (stereo unspecified)", "> 100 µM (inactive)"],
  ["C/C(=N\\c1cccc(Cl)c1)c1ccncc1", "> 100 µM (inactive)"],
  ["O=C(c1cccnc1)N1N=C(c2ccc(Cl)cc2)CC1(O)c1cc(F)c(Cl)cc1Cl (stereo unspecified)", "22.2 µM (inactive)"],
  ["COc1ccc(CC(N)c2ccc(OC)cc2)cc1 (stereo unspecified)", "> 100 µM (inactive)"]
]}

---

system: SNB-75; assay: NCI tumour cell line growth inhibition, 48 h
Active and inactive are the calls of the source. Cut-off read from the data, not from the text of the source: active = GI50 up to about 1.1 µM and inactive = higher.
Possible outcomes: active, inactive

{"columns": ["COMPOUND", "DISCRETE LABEL"],
 "data": [
  ["COc1ccc(-c2cc(-c3ccc(Nc4ccnc5cc(C(F)(F)F)ccc45)cc3)nc(N)c2C#N)cc1", "inactive"],
  ["O=c1[nH]c2nc3ccccc3c(=O)n2/c1=C/c1ccc(O)cc1", "inactive"],
  ["CC(C)(C)OC(=O)NCC(c1c[nH]c2ccccc12)c1c[nH]c2ccccc12", "inactive"],
  ["O=[N+]([O-])c1ccc(NN/N=N/c2ccc(-c3nc4ccccc4s3)cc2)c([N+](=O)[O-])c1", "inactive"],
  ["COC(=O)c1sc2c(c1C(=O)OC)/C(=N/c1ccc(OC)cc1)S/C2=N\\c1ccc(OC)cc1", "active"],
  ["NC(=O)C12CCC1C1CCCCC12N1CCOCC1 (centres undefined)", "inactive"],
  ["O=C1C=C[C@@]23CC1C(O)C[C@H]2C=Cc1ccccc13 (some centres undefined)", "inactive"],
  ["O=C(c1ccccc1)c1cn(/N=C\\c2ccccc2)c(=O)nc1-c1ccccc1", "inactive"],
  ["Clc1cc(Cl)c2n[se]nc2c1", "inactive"]
]}

---

system: LOX IMVI; test: NCI tumour cell line growth inhibition, 48 h
Calls of active or inactive are those of the source. Cut-off read from the data, not from the text of the source: active = GI50 up to about 1.1 µM and inactive = higher.
Possible outcomes: active, inactive

{"columns": ["MOLECULE", "DISCRETE LABEL"],
 "data": [
  ["COC(=O)C(=O)C(C(=O)C=C(C)C)C(=O)C(=O)Nc1cc(C(F)(F)F)ccc1Cl (configuration not stated)", "inactive"],
  ["COc1ccc(NC(=O)CC2SC(Nc3ccc(Cl)cc3C)=NC2=O)c([N+](=O)[O-])c1 (configuration not stated)", "inactive"],
  ["CC(=O)c1ccc(O)c(CN(C2CCCCC2)C2CCCCC2)c1O", "inactive"],
  ["CCC(C)C1(O)OC2CC3(C)OC(=CC3=O)/C(C)=C\\C3OC(=O)C1(C)C32 (configuration not stated)", "inactive"],
  ["COc1nc(N(C)C)nc2c1[n+](C)cn2C [HETEROMINE A]", "inactive"],
  ["O=C(CC(NC(=O)C(F)(F)F)C(=O)O)OCc1ccccc1 (configuration not stated)", "inactive"],
  ["CC(C)(C)C1=NC(=P(c2ccccc2)(c2ccccc2)c2ccccc2)C(=O)O1", "inactive"],
  ["Oc1ccc(Cl)cc1C1=NC(NCN2CCN(CNC3=NC(c4ccccc4)CC(c4cc(Cl)ccc4O)=N3)CC2)=NC(c2ccccc2)C1 (configuration not stated)", "inactive"],
  ["COc1cc(/C=C\\c2ccc(C)cc2)cc(OC)c1OC", "active"],
  ["O=C1OC(=O)C2C1C(c1ccccc1[N+](=O)[O-])C=C(c1ccco1)N2c1ccncc1 (configuration not stated)", "inactive"],
  ["O=C1/C(=C/c2ccc(Cl)cc2)CNC/C1=C\\c1ccc(Cl)cc1", "inactive"],
  ["N=C(N)C1CN(CCCCCCCCCCN2CC(C(=N)N)C(O)=NC2=O)C(=O)N=C1O (configuration not stated)", "inactive"],
  ["CC(=O)O[C@]12CCCC1C1(O)C(O)CCCC12 (some centres not stated)", "inactive"],
  ["CCOC(=O)C12CC(C)=C(C)CC1CCCc1ccccc12 (configuration not stated)", "inactive"],
  ["Cc1nc2ccccc2n1COC(Cn1ccnc1)c1ccc(Cl)cc1Cl (configuration not stated)", "inactive"],
  ["CCOc1ccc(/N=C\\c2ccc3cc(C)ccc3n2)cc1", "inactive"],
  ["CCCC(=O)Nc1ccc2c(c1)CN1C(=O)c3ccccc3C1=N2", "inactive"],
  ["Clc1cc(Cl)c2n[se]nc2c1", "inactive"],
  ["O=C1Nc2ccc(S(=O)(=O)N(CCO)CCO)cc2/C1=C1/Nc2ccccc2C1=O", "inactive"],
  ["[N-]=[N+]=Nc1cc(=O)n2c3c(cccc13)CCC2", "inactive"],
  ["CC(=O)c1ccc(NC(=O)C(=O)C(C(=O)c2ccc(Cl)c(Cl)c2)C2OC(=O)c3ccccc32)cc1 (configuration not stated)", "inactive"],
  ["O=C1c2cccc3cc4ccccc4c(c23)C(=O)N1CCNCCN1C(=O)c2cccc3cc4ccccc4c(c23)C1=O", "active"],
  ["Cc1cn(C2OC(C)(CO)C(O)C2O)c(=O)[nH]c1=O (configuration not stated)", "inactive"],
  ["CCOC(=O)Cn1nc2ccc(Nc3c(C)[n+]([O-])c4cc(F)c(OCC)cc4[n+]3[O-])cc2n1", "inactive"],
  ["O=C1/C(=C/c2ccccc2)CCCc2ccccc21", "inactive"],
  ["CC(=O)OC1CC2C(C)(C)OC(=O)CC(OC(C)=O)[C@]2(C)C2CCC3(C)C(=CCC3[C@H]3COC(=O)C3)[C@]12C (some centres not stated)", "inactive"],
  ["Nc1nc(Cl)cc(Nc2ccc3c(c2)CCC3)n1", "inactive"],
  ["CC(NC(NC(C)C12CC3CC(CC(C3)C1)C2)=C(C(Cl)=C(Cl)Cl)[N+](=O)[O-])C12CC3CC(CC(C3)C1)C2 (configuration not stated)", "inactive"],
  ["CCOC(=O)/C=C/[C@H](O[Si](CC)(CC)CC)C(C)(C)C", "inactive"],
  ["CCCCCCCCCCCCCCC(C)CCC(=O)O (configuration not stated)", "inactive"],
  ["c1ccc2c(c1)CCN2CCc1c[nH]c2ccccc12", "inactive"],
  ["SCCCSCCSCCCSCCS", "inactive"],
  ["CCOC(=O)c1nc2ccc(C(F)(F)F)cc2nc1Oc1ccc(C#N)cc1", "inactive"],
  ["O=c1[nH]c2cc([N+](=O)[O-])c(N(CCO)CCO)c([N+](=O)[O-])c2[nH]1", "inactive"],
  ["C=C(C)CNC(=S)N(N)c1ccc(OC)cc1", "inactive"],
  ["Cc1c2n(c(=O)[nH]c1=O)C1OC(CO)C(O2)C1N=[N+]=[N-] (configuration not stated)", "inactive"],
  ["CC(C)(C)/N=C\\N1CCC(C(c2ccccc2)c2ccccc2)CC1", "inactive"],
  ["O=c1c2c(c1=O)-c1ccccc1CN2", "inactive"],
  ["CCC1OC(=O)C(C)C(OC2CC(C)(O)C(O)C(C)O2)C(C)C(O)C(C)(O)CC(C)C(=O)C(C)C(O)C1C (configuration not stated)", "inactive"],
  ["CCN(CC)C(=O)CNC(=O)OC(C)(C)C", "inactive"],
  ["CC1c2[nH]c3ccccc3c2CCN1O (configuration not stated)", "inactive"],
  ["CCCCCCCC(CC(=O)O)OC(=O)CC(CCCCCCC)OC1OC(C)C(O)C(O)C1OC1OC(C)C(O)C(O)C1O (configuration not stated)", "inactive"]
]}
